Biological target: J6 RNA (SEQ ID NO:5)
Assay: Fluorescence binding measurements, J6 RNA
Details: K2 - low affinity; read-out: Dissociation Constants K2(TOB)
recordedEndpoint: Kd (µM)
Give bare numbers, in µM.

[in] Find the measured Kd: item `NC[C@H]1O[C@H](O[C@H]2[C@H](O)[C@@H](O[C@H]3O[C@H](CO)[C@@H](O)[C@H](N)[C@H]3O)[C@H](N)C[C@@H]2N)[C@H](N)C[C@@H]1O` , target or system J6 RNA (SEQ ID NO:5).
[out] 6

====

Target: RRE region of HIV RNA
Test: Fluorescence binding and competitive binding to RRE RNA
Conditions: competition, 100 nM RNA, 15 nM fluorescent tobramycin, 20° C., pH 7.4; read-out: Dissociation Constant (KD) RRE RNA
recordedEndpoint: Kd (µM)
Numbers only, in µM.

NC[C@@H]1O[C@H](O[C@H]2[C@@H](O)[C@H](O[C@@H]3[C@@H](O)[C@H](N)C[C@H](N)[C@H]3O[C@H]3O[C@H](CN)[C@@H](O)[C@H](O)[C@H]3N)O[C@@H]2CO)[C@H](N)[C@@H](O)[C@@H]1O; 0.419
NC[C@H]1O[C@H](O[C@H]2[C@H](O)[C@@H](O[C@H]3O[C@H](CO)[C@@H](O)[C@H](N)[C@H]3O)[C@H](N)C[C@@H]2N)[C@H](N)C[C@@H]1O; 2.32

Now, please, on to the next molecule.
[in] Would you mind telling me what Kd value was observed for `NC[C@@H]1O[C@H](O[C@H]2[C@@H](O)[C@H](O[C@@H]3[C@@H](O)[C@H](N)C[C@H](N)[C@H]3O[C@H]3O[C@H](CO)[C@@H](O)C[C@H]3N)O[C@@H]2CO)[C@H](N)[C@@H](O)[C@@H]1O[C@H]1O[C@H](CO)[C@@H](O)[C@H](O)[C@@H]1O` ?
[out] 11.9

====

Molecular target: TAR region of HIV RNA
Assay: Fluorescence binding and competitive binding to TAR RNA
Conditions: competition, 100 nM RNA, 15 nM fluorescent tobramycin, 20° C., pH 7.4; read-out: Dissociation Constant (KD) TAR RNA
recordedEndpoint: Kd (µM)
Answers are plain numbers, in µM.

[in] Find the measured Kd: item NC[C@H]1O[C@H](O[C@H]2[C@H](O)[C@@H](O[C@H]3O[C@H](CO)[C@@H](O)[C@H](N)[C@H]3O)[C@H](N)C[C@@H]2N)[C@H](N)C[C@@H]1O [tobramycin] , target or system TAR region of HIV RNA.
[out] 19.1

====

Biological target: J6a1 RNA (SEQ ID NO: 5), synthetically derived from the predicted structures
Assay: Fluorescence binding measurements, J6a1 RNA
Conditions: K1 - high affinity; read-out: Dissociation Constants K1(TOB)
recordedEndpoint: Kd (nM)
Give bare numbers, in nM.

[in] Would you mind telling me what Kd value was observed for NC[C@H]1O[C@H](O[C@H]2[C@H](O)[C@@H](O[C@H]3O[C@H](CO)[C@@H](O)[C@H](N)[C@H]3O)[C@H](N)C[C@@H]2N)[C@H](N)C[C@@H]1O [tobramycin] ?
[out] 9

====

Biological target: X1 RNA (SEQ ID NO: 3 in Table 3; SEQ ID NO:2 in text)
Experiment: Fluorescence binding measurements, X1 RNA
Settings: K2 - low affinity; read-out: Dissociation Constants K2(TOB)
Experimental: The binding of tobramycin to two cloned RNAs X1 (SEQ ID NO:2) and J6 (SEQ ID NO:5), representative of both classes of consensus sequences, was measured using the fluorescence techniques described in the exemplification. Steady state fluorescence measurements were performed on a double beam fluorescence spectrometer (Perkin-Elmer Model 512, Norwalk, Conn.). The excitation wavelength was 341 nm. […]
recordedEndpoint: Kd (µM)
Numbers only, in µM.

[in] Would you mind telling me what Kd value was observed for `NC[C@H]1O[C@H](O[C@H]2[C@H](O)[C@@H](O[C@H]3O[C@H](CO)[C@@H](O)[C@H](N)[C@H]3O)[C@H](N)C[C@@H]2N)[C@H](N)C[C@@H]1O` ?
[out] 15.9

====

Target: X1 RNA (SEQ ID NO: 3 in Table 3; SEQ ID NO:2 in text)
Assay: Fluorescence binding measurements, X1 RNA
Details: K1 - high affinity; read-out: Dissociation Constants K1(TOB)
recordedEndpoint: pKd
One number for each entry, as −log10 of the molar value.

[in] Would you mind telling me what pKd value was observed for NC[C@H]1O[C@H](O[C@H]2[C@H](O)[C@@H](O[C@H]3O[C@H](CO)[C@@H](O)[C@H](N)[C@H]3O)[C@H](N)C[C@@H]2N)[C@H](N)C[C@@H]1O [tobramycin] ?
[out] 8.52

====

Target: J6 RNA (SEQ ID NO:5)
Experiment: Fluorescence binding measurements, J6 RNA
Settings: K1 - high affinity; read-out: Dissociation Constants K1(TOB)
recordedEndpoint: pKd
Give bare numbers, as −log10 of the molar value.

[in] Would you mind telling me what pKd value was observed for `NC[C@H]1O[C@H](O[C@H]2[C@H](O)[C@@H](O[C@H]3O[C@H](CO)[C@@H](O)[C@H](N)[C@H]3O)[C@H](N)C[C@@H]2N)[C@H](N)C[C@@H]1O` ?
[out] 8.70
